# System: human whole blood (leukotriene and prostaglandin levels)
# protocol_text: Eicosanoid production from human whole blood
# Format: cell-based
# measurement_setup: human whole blood stimulated with calcium ionophore A23187 and arachidonic acid; ELISA
pIC50: −log10 of the molar value.
measured_attribute: pIC50

1) NC(=O)C1(c2cccc(Sc3ccc(-c4ccnn4CC4CCCC4)cc3)c2)CCOCC1 [Example 7]; 7.11
2) Cn1nccc1-c1ccc(Sc2cccc(C3(C(N)=O)CCOCC3)c2)c(Cl)c1 [Example 13]; 6.92
3) C[C@H]1C[C@@](C#N)(c2cccc(Sc3ccc(-c4ccnn4C)c(F)c3)c2F)CCO1 [31(1)]; 7.22
4) Cn1ncc(Cl)c1-c1ccc(Sc2cccc(C3(C(N)=O)CCOCC3)c2)cc1 [Example 57]; 6.29
5) C[C@H]1C[C@@](C(N)=O)(c2cccc(Sc3ccc(-c4ccnn4C)cc3F)c2F)CCO1 [Example 26]; 6.16
6) C[C@H]1C[C@@](C(N)=O)(c2cccc(Sc3ccc(-c4ccnn4C)c(F)c3)c2)CCO1 [Example 30]; 6.70
7) C[C@H]1C[C@@](C(N)=O)(c2ccc(F)c(Sc3ccc(-c4ccnn4C)cc3)c2)CCO1 [Example 23]; 6.50
8) C[C@H]1C[C@@](C(N)=O)(c2ccc(F)c(Sc3ccc(-c4ccnn4C)cc3)c2F)CCO1 [Example 28]; 6.64
9) Cn1nccc1-c1ccc(Sc2cc(F)cc(C3(C(N)=O)CCOCC3)c2F)cc1 [19(10)]; 6.32
10) CNC(=O)C1(c2cc(F)cc(Sc3ccc(-c4ccnn4C)cc3)c2F)CCOCC1 [Example 19]; 6.00
11) Cn1nccc1-c1ncc(Sc2cccc(C3(C(N)=O)CCOCC3)c2)cc1Cl [Example 11]; 6.59

---

# measured_on: recombinant human 5-LOX (Homo sapiens, UniProt P09917)
# Sequence (P09917 whole entry): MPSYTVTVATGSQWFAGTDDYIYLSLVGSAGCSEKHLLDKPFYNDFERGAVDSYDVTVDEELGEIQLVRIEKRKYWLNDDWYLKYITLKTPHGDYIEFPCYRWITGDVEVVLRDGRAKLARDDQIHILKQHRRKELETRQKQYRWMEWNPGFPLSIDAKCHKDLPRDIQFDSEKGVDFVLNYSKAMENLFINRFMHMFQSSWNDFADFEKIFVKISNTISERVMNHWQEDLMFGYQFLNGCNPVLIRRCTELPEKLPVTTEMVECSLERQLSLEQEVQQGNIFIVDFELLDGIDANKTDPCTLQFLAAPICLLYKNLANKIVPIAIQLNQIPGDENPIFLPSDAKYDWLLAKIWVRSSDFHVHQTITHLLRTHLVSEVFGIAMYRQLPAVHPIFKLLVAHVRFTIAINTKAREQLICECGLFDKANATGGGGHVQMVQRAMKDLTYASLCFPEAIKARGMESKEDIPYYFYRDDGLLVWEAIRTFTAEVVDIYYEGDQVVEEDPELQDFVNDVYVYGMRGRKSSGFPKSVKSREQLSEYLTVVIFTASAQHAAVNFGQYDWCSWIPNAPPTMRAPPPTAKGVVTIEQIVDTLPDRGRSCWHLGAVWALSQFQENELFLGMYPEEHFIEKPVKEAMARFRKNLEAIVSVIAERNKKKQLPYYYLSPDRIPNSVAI
# protocol_text: Fluorescence Intensity 5-LOX Enzyme Assay
# measurement_setup: crude lysate of recombinant human 5-LOX; highest inhibitor concentration tested typically 25 μM
Lab note: anything with IC50 below 200 nM is marked 1.0; values at 200 nM or higher are marked 0.0.

1. Cn1nccc1C(=O)c1ccc(Sc2cccc(C3(C(N)=O)CCOCC3)c2)c(F)c1; 0.0
2. C[C@@H]1C[C@](C#N)(c2cccc(Sc3ccc(-c4ccnn4C)cc3)c2)CCO1; 0.0
3. C[C@H]1C[C@@](C#N)(c2cccc(Sc3ccc(-c4ccnn4C)cc3)c2F)CCO1; 1.0
4. NC(=O)C1(c2cccc(Sc3ccc(-c4[nH]ncc4Br)cc3)c2)CCOCC1; 0.0
5. Cn1nccc1Oc1ncc(Sc2cccc(C3(C(N)=O)CCOCC3)c2F)cc1Cl; 0.0
6. C[C@H]1C[C@@](C(N)=O)(c2cc(F)cc(Sc3ccc(-c4ccnn4C)cc3)c2)CCO1; 1.0
7. Cn1nccc1C(=O)c1ccc(Sc2cccc(C3(C(N)=O)CCOCC3)c2)cc1Cl; 1.0
8. CNC(=O)C1(c2cccc(Sc3ccc(-c4ccnn4C)cc3Cl)c2)CCOCC1; 1.0
9. Cn1nccc1-c1ncc(Sc2cccc(C3(C#N)CCOCC3)c2)cc1Cl; 0.0
10. Cn1nccc1-c1ccc(Sc2cccc(C3(C#N)CCOCC3)c2F)cc1; 0.0
11. Cn1nccc1-c1ccc(Sc2c(F)ccc(C3(C(N)=O)CCOCC3)c2F)cc1; 0.0
12. C[C@H]1C[C@@](C#N)(c2cc(F)cc(Sc3ccc(-c4ccnn4C)cc3)c2)CCO1; 0.0
13. Cn1ncc(Cl)c1-c1ccc(Sc2cccc(C3(C(N)=O)CCOCC3)c2)cc1F; 1.0
14. Cn1nccc1-c1ccc(Sc2cccc(C3(C(N)=O)CCOCC3)c2)cc1C#N; 0.0
15. C[C@H]1C[C@@](C(N)=O)(c2cccc(Sc3ccc(-c4ccnn4C)c(F)c3)c2)CCO1; 1.0
16. Cn1nccc1C(=O)c1ccc(Sc2cccc(C3(C(N)=O)CCOCC3)c2)cc1F; 1.0
17. CCn1nccc1-c1ccc(Sc2cccc(C3(C(N)=O)CCOCC3)c2)cc1; 1.0
18. CC(C)n1nccc1-c1ccc(Sc2cccc(C3(C(N)=O)CCOCC3)c2)cc1; 1.0
19. Cc1cc(Sc2cccc(C3(C(N)=O)CCOCC3)c2)ccc1-c1ccnn1C; 1.0
20. Cn1nccc1Cc1ccc(Sc2cccc(C3(C(N)=O)CCOCC3)c2)cc1F; 1.0
21. C[C@H]1C[C@@](C#N)(c2cccc(Sc3cnc(Oc4ccnn4C)c(Cl)c3)c2F)CCO1; 1.0
22. C[C@H]1C[C@](C(N)=O)(c2cccc(Sc3ccc(-c4ccnn4C)cc3)c2)CCO1; 0.0
23. CNC(=O)C1(c2cc(F)cc(Sc3ccc(-c4ccnn4C)cc3)c2)CCOCC1; 0.0
24. C[C@H]1C[C@](C#N)(c2cccc(Sc3ccc(-c4ccnn4C)cc3)c2)CCO1; 0.0
25. Cn1ncc(Cl)c1-c1ccc(Sc2cccc(C3(C(N)=O)CCOCC3)c2)cc1; 1.0
26. CNC(=O)C1(c2cccc(Sc3ccc(C(=O)c4ccnn4C)c(OC)c3)c2)CCOCC1; 0.0
27. C[C@H]1C[C@@](C(N)=O)(c2cccc(Sc3ccc(C(=O)c4ccnn4C)cc3)c2)CCO1; 1.0
28. C[C@@H]1C[C@](C(N)=O)(c2ccc(F)c(Sc3ccc(-c4ccnn4C)cc3)c2)CCO1; 0.0
29. Cn1nccc1C(=O)c1ncc(Sc2cccc(C3(C(N)=O)CCOCC3)c2)cc1Cl; 0.0
30. COc1ccc(C2(C(N)=O)CCOCC2)cc1Sc1ccc(-c2ccnn2C)cc1; 1.0
31. COc1ccc(C2(C#N)CCOCC2)cc1Sc1ccc(-c2ccnn2C)cc1; 0.0
32. C[C@H]1C[C@@](C#N)(c2cccc(Sc3ccc(-c4ccnn4C)cc3F)c2F)CCO1; 1.0

---

pIC50 values for the molecules below.
# measured_on: recombinant human 5-LOX (Homo sapiens, UniProt P09917)
# protocol_text: Fluorescence Intensity 5-LOX Enzyme Assay
# measurement_setup: crude lysate of recombinant human 5-LOX; highest inhibitor concentration tested typically 25 μM
pIC50: −log10 of the molar value.
measured_attribute: pIC50

1. C[C@H]1C[C@@](C(N)=O)(c2cccc(Sc3ccc(C(=O)c4ccnn4C)cc3)c2F)CCO1; 7.66
2. C[C@H]1C[C@@](C(N)=O)(c2cccc(Sc3ccc(-c4ccnn4C)cc3F)c2F)CCO1; 7.55
3. C[C@H]1C[C@@](C#N)(c2ccc(F)c(Sc3ccc(-c4ccnn4C)cc3)c2F)CCO1; 7.41

---

# Test system: human whole blood (leukotriene and prostaglandin levels)
# protocol_text: Eicosanoid production from human whole blood
# Format: cell-based
# measurement_setup: human whole blood stimulated with calcium ionophore A23187 and arachidonic acid; ELISA
pIC50: −log10 of the molar value.
measured_attribute: pIC50

1. Cn1nccc1C(=O)c1ccc(Sc2cccc(C3(C(N)=O)CCOCC3)c2)cc1F [Example 58]; 5.94
2. Cn1nccc1C(=O)c1ccc(Sc2cccc(C3(C(N)=O)CCOCC3)c2)c(F)c1 [Example 67]; 5.92
3. Cn1nccc1C(=O)c1ncc(Sc2cccc(C3(C(N)=O)CCOCC3)c2)cc1Cl [Example 42]; 6.07

---

# Tested on: eicosanoid production in the rat air pouch
# protocol_text: Carrageenan-induced eicosanoid production in the rat air pouch
# Type: in vivo
# measurement_setup: po, male Lewis rats, 3 mpk by gavage 1 hour prior to carrageenan
measured_attribute: inhibition at 3 mg/kg (%)

1) CNC(=O)C1(c2cccc(Sc3ccc(-c4ccnn4C)cc3)c2Cl)CCOCC1; 64
2) C[C@H]1C[C@@](C(N)=O)(c2ccc(F)c(Sc3ccc(-c4ccnn4C)cc3)c2)CCO1; 76
3) CNC(=O)C1(c2cccc(Sc3ccc(-c4ccnn4C)cc3Cl)c2)CCOCC1; 0
4) Cn1nccc1Oc1ccc(Sc2cccc(C3(C(N)=O)CCOCC3)c2)cc1C#N; 77
5) C[C@H]1C[C@@](C(N)=O)(c2cccc(Sc3ccc(-c4ccnn4C)cc3)c2F)CCO1; 100
6) C[C@H]1C[C@@](C#N)(c2cc(F)cc(Sc3ccc(-c4ccnn4C)cc3)c2)CCO1; 100
7) C[C@H]1C[C@@](C(N)=O)(c2ccc(F)c(Sc3ccc(-c4ccnn4C)cc3)c2F)CCO1; 100
8) C[C@H]1C[C@@](C#N)(c2cccc(Sc3ccc(C(=O)c4ccnn4C)cc3)c2F)CCO1; 94
9) C[C@H]1C[C@@](C#N)(c2cc(F)cc(Sc3ccc(-c4ccnn4C)c(F)c3)c2)CCO1; 93
10) Cn1nccc1-c1ccc(Sc2cc(C3(C(N)=O)CCOCC3)ccc2F)cc1; 96
11) C[C@H]1C[C@@](C(N)=O)(c2cccc(Sc3ccc(-c4ccnn4C)cc3)c2)CCO1; 99.5
12) C[C@H]1C[C@@](C(N)=O)(c2cccc(Sc3cnc(Oc4ccnn4C)c(Cl)c3)c2F)CCO1; 100
13) C[C@H]1C[C@@](C#N)(c2cccc(Sc3ccc(-c4ccnn4C)cc3)c2F)CCO1; 100
14) Cn1nccc1-c1ncc(Sc2cccc(C3(C(N)=O)CCOCC3)c2)cc1Cl; 69
15) CNC(=O)C1(c2cccc(Sc3ccc(-c4ccnn4C)cc3)c2F)CCOCC1; 83
16) C[C@H]1C[C@@](C#N)(c2cccc(Sc3ccc(-c4ccnn4C)c(F)c3)c2F)CCO1; 96
17) Cn1nccc1-c1ccc(Sc2cccc(C3(C(N)=O)CCOCC3)c2)c(Cl)c1; 1
18) CNC(=O)C1(c2cccc(Sc3ccc(-c4ccnn4C)cc3)c2)CCOCC1; 5
19) Cn1nccc1-c1ccc(Sc2cc(F)cc(C3(C(N)=O)CCOCC3)c2)cc1; 68.5
20) Cn1nccc1-c1ccc(Sc2cccc(C3(C(N)=O)CCOCC3)c2)cc1Cl; 50.5
21) C[C@H]1C[C@@](C#N)(c2cccc(Sc3ccc(-c4ccnn4C)c(F)c3)c2)CCO1; 95
22) Cn1nccc1Oc1ncc(Sc2cccc(C3(C(N)=O)CCOCC3)c2)cc1Cl; 98
23) C[C@H]1C[C@@](C#N)(c2cccc(Sc3cnc(Oc4ccnn4C)c(Cl)c3)c2F)CCO1; 97
24) Cn1nccc1-c1ccc(Sc2cccc(C3(C#N)CCOCC3)c2)cc1F; 0
25) Cn1nccc1C(=O)c1ccc(Sc2cccc(C3(C(N)=O)CCOCC3)c2)cc1F; 0
26) C[C@H]1C[C@@](C(N)=O)(c2cccc(Sc3ccc(C(=O)c4ccnn4C)cc3)c2F)CCO1; 96
27) CNC(=O)C1(c2cc(F)cc(Sc3ccc(-c4ccnn4C)cc3)c2F)CCOCC1; 95.3
28) Cn1nccc1-c1ccc(Sc2cccc(C3(C(N)=O)CCOCC3)c2)cc1C#N; 0
29) Cn1nccc1-c1ccc([S+]([O-])c2cccc(C3(C(N)=O)CCOCC3)c2)cc1 (centres unmarked); 12

// data source = patent US8097733B2
